The entries below come with measured Relative Population Doubling (RPD) values attached.
- Tested on: TK6 cells
- assay.procedure: Cytostasis analysis (Relative Population Doubling, Guava ViaCount)
- Assay type: cell-based, human
- measurement.parameters: 35 µM, 26 h treatment, vs untreated control C (-) = 100%, mean ± SEM

As a guide, the following entries are already answered.
Reported Relative Population Doubling (RPD) for COc1cc(CCN)c(OC)cc1Br was 63.1% ± 1.6

Reported Relative Population Doubling (RPD) for CNC(C)Cc1ccc2c(c1)OCO2 (centres unmarked) [MDMA, 3,4-methylenedioxy-methamphetamine, reference compound] was 98.0% ± 1.5

Reported Relative Population Doubling (RPD) for COc1ccc(OC)c(CCN)c1 was 74.0% ± 1.8

Reported Relative Population Doubling (RPD) for COc1cc(CCNCc2ccccc2OC)c(OC)cc1Br [25B-NBOMe] was 1.0% ± 0.2

Now turn to the next compound.
Reported Relative Population Doubling (RPD) for COc1cc(CCN)c(OC)cc1I was 63.9% ± 1.6
